Parameter cytotoxicity at 10 µM: see the listing below.
assay: Toxicity liver stage against HepG2, at 10uM; type: cell-based; parameters: test concentration 10 uM, cell line HepG2-A16-CD81EGFP; details: human, HepG2-A16-CD81EGFP cells; read-out: INHIBITION

# molecule, readout_units, cytotoxicity at 10 µM
measured = [
    ("Cn1nc(-c2ccccc2)c(Br)c1C(=O)O", "%", -48.3),
    ("Cc1cnn(C2CN(CC(O)c3ccc4c(c3)OCCO4)C2)c1 (stereo unspecified)", "%", 21.9),
    ("CC(C)(C)C(O)CN1CCN(CC(=O)NCC(F)(F)F)CC1 (stereo unspecified)", "%", -10.2),
    ("O=C(COCC(F)(F)C(F)F)N1CCC2(CCCN(CC3CC3)C2=O)C1 (stereo unspecified)", "%", 4.46),
    ("O=C1CCCC2=Nc3nonc3NC(c3ccc(Cl)cc3Cl)C12 (stereo unspecified)", "%", 5.24),
    ("COc1cccc(CC(=O)N2CCCC2c2nc(C)c(F)c(O)n2)c1 (stereo unspecified)", "%", -21.6),
    ("Cc1n[nH]c2ncc(CNC3CCN(Cc4ccccn4)CC3)cc12", "%", 7.14),
    ("O=C(c1ccno1)N1CCC2(CC1)C(=O)N(CC1CC1)c1ccccc12", "%", 7.85),
    ("COc1ccc(S(=O)(=O)N2CCC[C@@H]3CN(C(=O)C4CC4)C[C@@H]32)cc1", "%", 14.7),
    ("c1ccc(-c2nn3c(CN4CCOCC4)nnc3s2)nc1", "%", 9.9),
    ("O=C(c1nn(-c2ccccc2F)cc1O)N1CCC2(CC1)OCCO2", "%", -3.24),
]
